# Test system: MALME-3M melanoma
# Assay procedure: NCI tumour cell line growth inhibition, 48 h
Item-by-item account of TGI
Recorded metric: TGI

[[record]]
compound = "Nc1nc2cc(CNc3ccc(C(=O)NC(CCC(=O)O)C(=O)O)cc3)ccc2nc1-c1ccccc1 (stereo unspecified)"
recorded_metric = "TGI"
reading = "> 10 µM"

[[record]]
compound = "COC(=O)CCN(CCC(=O)OC)C1CC1"
recorded_metric = "TGI"
reading = "> 100 µM"

[[record]]
compound = "CC(C)CCC[C@@H](C)[C@H]1CCC2C3=CCC4C(=O)C=CC(=O)C4C3CC[C@@]21C (stereo partly specified)"
recorded_metric = "TGI"
reading = "2 µM"

[[record]]
compound = "Cc1ccc(/C(=C/C=C(C#N)C#N)Sc2ccccn2)cc1"
recorded_metric = "TGI"
reading = "17.3 µM"

[[record]]
compound = "COC(=O)c1ccccc1CC(Cc1ccccc1)C(=O)OC (stereo unspecified)"
recorded_metric = "TGI"
reading = "> 100 µM"

[[record]]
compound = "Cc1ccc2[nH]c(C(=O)NN3C(=O)C(C)SC34CCCCC4C)c(-c3ccccc3)c2c1 (stereo unspecified)"
recorded_metric = "TGI"
reading = "38.1 µM"

[[record]]
compound = "COc1ccc(C(O)/C(=C/n2ccnc2)c2ccccc2)cc1OC (stereo unspecified)"
recorded_metric = "TGI"
reading = "> 100 µM"

[[record]]
compound = "CC(=O)O[C@H]1CC[C@@]2(C)C(=CC[C@@H]3C2CC[C@]2(C)Nc4[nH]ncc4CC32)C1 (stereo partly specified)"
recorded_metric = "TGI"
reading = "86.1 µM"

[[record]]
compound = "N/C(=N\\c1nc2ccccc2s1)NC(=O)Nc1cccc2ccccc12"
recorded_metric = "TGI"
reading = "> 100 µM"

[[record]]
compound = "O=C(O)C1SCCS1"
recorded_metric = "TGI"
reading = "> 100 µM"

[[record]]
compound = "N#C[C@H]1Nc2ccccc2[C@@H](O)C1O (stereo partly specified)"
recorded_metric = "TGI"
reading = "> 100 µM"

